biological target: recombinant homotrimeric HA, A/California/4/09 H1N1 (Influenza A virus A/California/4/09 (H1N1)); assay: trimeric HA microarray, transfection set 5; conditions: remark: other sources report otherwise
assay-endpoint: Trimeric HA Binding RLU (RLU)
Give bare numbers, in RLU.

TCN-523 (5248_A17) (antibody, V domains shown) VH: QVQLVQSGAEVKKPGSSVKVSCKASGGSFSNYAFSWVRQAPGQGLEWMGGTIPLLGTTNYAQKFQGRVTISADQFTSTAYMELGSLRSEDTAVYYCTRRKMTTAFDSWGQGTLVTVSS VL: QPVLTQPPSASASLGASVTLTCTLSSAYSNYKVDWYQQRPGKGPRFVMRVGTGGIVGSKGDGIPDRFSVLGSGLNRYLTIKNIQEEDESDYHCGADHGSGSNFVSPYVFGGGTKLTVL
34400
TCN-557 (5081_A04) (antibody, V domains shown) VH: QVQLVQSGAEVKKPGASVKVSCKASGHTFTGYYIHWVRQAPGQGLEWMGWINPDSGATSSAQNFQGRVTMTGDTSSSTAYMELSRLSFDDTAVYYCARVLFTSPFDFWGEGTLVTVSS VL: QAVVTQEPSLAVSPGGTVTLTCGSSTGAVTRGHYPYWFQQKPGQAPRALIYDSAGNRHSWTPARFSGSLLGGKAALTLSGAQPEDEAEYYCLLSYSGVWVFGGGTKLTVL
44400

Proceeding to the next binder to report its Trimeric HA Binding RLU.
Challenge: Look up Trimeric HA Binding RLU: TCN-551 (5243_D01) (antibody, V domains shown) VH: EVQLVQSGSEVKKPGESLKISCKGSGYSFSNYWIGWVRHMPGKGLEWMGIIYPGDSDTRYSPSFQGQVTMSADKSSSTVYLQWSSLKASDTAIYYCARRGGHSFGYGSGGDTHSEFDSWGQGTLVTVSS VL: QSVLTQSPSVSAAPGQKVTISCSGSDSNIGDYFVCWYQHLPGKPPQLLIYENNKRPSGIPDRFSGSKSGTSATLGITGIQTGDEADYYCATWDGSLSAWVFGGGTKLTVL
Response given: 46100
